- EXPERIMENTAL DETAILS: Partition coefficient (logD) (0.01 N NaOH)
- Assay type: physicochemical
- TEST CONTEXT: 0.01 N NaOH; read-out: logD
QUANTITY MEASURED: logD

P: COc1cc(Cc2cnc(N)nc2N)cc(OC)c1SC [METIOPRIM]
Q: Nc1ccc(Cc2cnc(N)nc2N)cc1
R: COc1cc(Cc2cnc(N)nc2N)ccc1O
S: CCCCOCc1cccc(Cc2cnc(N)nc2N)c1
query: With the 4 compounds above, produce a list ordered by ascending logD. Answer by naming the labels in the order asked.
result: Q, R, P, S

1: COc1ccc(Cc2cnc(N)nc2N)cc1O
2: COc1cc(Cc2cnc(N)nc2N)ccc1OCc1ccccc1
query: // which entry has the larger logD value, 1 or 2 ? Label of pick, please.
result: 2
(2: 2.66, 1: 0.74)

----------
- ASSAYED SYSTEM: Dihydrofolate reductase (Lactobacillus casei, UniProt P00381)
- Sequence (P00381 whole entry): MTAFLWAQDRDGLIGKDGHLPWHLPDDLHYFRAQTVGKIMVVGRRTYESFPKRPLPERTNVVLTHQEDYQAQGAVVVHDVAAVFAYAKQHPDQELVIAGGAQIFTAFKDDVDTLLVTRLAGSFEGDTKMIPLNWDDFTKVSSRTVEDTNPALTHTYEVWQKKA
pKi: −log10 of the molar value.
QUANTITY MEASURED: pKi

INSERT INTO results (molecule, quantity_measured, quantitative_readout) VALUES
  ('Nc1ncc(Cc2ccc3c(c2)OCO3)c(N)n1', 'pKi', 6.34),
  ('COc1ccc(Cc2cnc(N)nc2N)cc1C(F)(F)F', 'pKi', 7.10),
  ('C=C(C)c1c(OC)cc(Cc2cnc(N)nc2N)cc1OC', 'pKi', 7.34),
  ('COc1cc(Cc2cnc(N)nc2N)ccc1O', 'pKi', 6.47),
  ('Nc1ncc(Cc2ccc(O)cc2)c(N)n1', 'pKi', 6.38),
  ('CCCCCCCCOc1cc(Cc2cnc(N)nc2N)ccc1OC', 'pKi', 6.50),
  ('COc1cc(Cc2cnc(N)nc2N)cc(OC)c1SC', 'pKi', 7.25),
  ('CCOc1cc(Cc2cnc(N)nc2N)cc(OCC)c1', 'pKi', 6.41),
  ('COCCOc1ccc(Cc2cnc(N)nc2N)cc1OC', 'pKi', 6.54),
  ('CCOc1cc(Cc2cnc(N)nc2N)cc(OCC)c1-n1cccc1 [EPIROPRIM]', 'pKi', 7.33);

1: CS(=O)(=O)Oc1ccc(Cc2cnc(N)nc2N)cc1
2: CCc1cc(Cc2cnc(N)nc2N)cc(CO)c1CO
3: CCCOc1cc(Cc2cnc(N)nc2N)cc(OCCC)c1
4: COc1cc(Cc2cnc(N)nc2N)cc(OC)c1Br
5: CCCCCCCCOc1c(OC)cc(Cc2cnc(N)nc2N)cc1OC
query: Order the records, beginning with the lowest pKi and ending with the highest. Answer by naming the labels in the order asked.
result: 5, 3, 1, 2, 4

P: COc1cc(Cc2cnc(N)nc2N)cc(OC)c1N(C)C
Q: Cc1cc(C)cc(Cc2cnc(N)nc2N)c1
query: Please indicate which has the smaller reported pKi: P , or Q . Label of pick, please.
result: Q
(Q: 5.87, P: 6.45)

----------
- ASSAYED SYSTEM: UniProtKB P00378
- Sequence (P00378 whole entry): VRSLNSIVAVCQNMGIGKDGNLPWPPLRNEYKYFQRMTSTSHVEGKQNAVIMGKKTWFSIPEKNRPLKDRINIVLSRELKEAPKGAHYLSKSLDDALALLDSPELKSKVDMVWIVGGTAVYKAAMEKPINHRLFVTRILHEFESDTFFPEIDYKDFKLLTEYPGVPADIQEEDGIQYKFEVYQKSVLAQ
QUANTITY MEASURED: Ki (µM)

The following compounds have reported results that may help.
INSERT INTO assay_data (compound, assayed_system, quantitative_readout) VALUES
  ('CCc1cc(Cc2cnc(N)nc2N)cc(NC(C)=O)c1CO', 'UniProtKB P00378', 347),
  ('C=C(C)c1c(OC)cc(Cc2cnc(N)nc2N)cc1OC', 'UniProtKB P00378', 67.6),
  ('CCOc1cc(Cc2cnc(N)nc2N)cc(OCC)c1-n1cccc1 [EPIROPRIM]', 'UniProtKB P00378', 46.8),
  ('Nc1ncc(Cc2ccc(-c3ccccc3)cc2)c(N)n1', 'UniProtKB P00378', 5.5);

1: COCCOc1ccc(Cc2cnc(N)nc2N)cc1OC
2: COc1ccc(Cc2cnc(N)nc2N)cc1O
query: // which entry has the larger Ki value, 1 or 2 ? Label of pick, please.
result: 2
(2: 141 µM, 1: 64.6 µM)

The origin of these recorded values is ChEMBL document CHEMBL1124563.
